System: NCI-H226 lung
Test: NCI-60 one-dose screen, 48 h (100 = growth as untreated, 0 = no growth, -100 = all killed)
Settings: 10 µM unless noted
Compounds without any hit were thinned out: in the full panel of roughly 83,000, 20% have a hit.
Catalogue of growth values
measured.endpoint: growth (%)

1) COc1cc2oc(-c3ccc(O)cc3)cc(=O)c2c(O)c1-c1c(OC)cc(O)c2c(=O)cc(-c3ccc(O)cc3)oc12 | 70.8
2) C[C@H]1[C@H]2[C@H]3CC[C@@H]4[C@@]5(C)CC[C@H](O)C(C)(C)[C@@H]5CC[C@@]4(C)[C@]3(C)CC[C@]23CO[C@]1(C)[C@@H](C(=O)/C=C\c1cccnc1)C3 | 76.6
3) C/C(=C\C(=O)c1ccc(Cl)cc1)c1ccc(Cl)cc1 | 90.9
4) CCc1cccc2c1S/C(=C/c1ccc(OC)cc1)C2=O | 85.7
5) CCCCn1c(-c2ccc(C(=O)O/N=C(\N)c3ccc(OC)cc3)cc2)nc(-c2ccccc2)c1-c1ccccc1 | 69.5
6) CCCCCCn1c(-c2ccc(C(=O)O/N=C(\N)c3ccc4c(c3)OCO4)cc2)nc(-c2ccccc2)c1-c1ccccc1 | 64.6
7) CCN(CC)CCNC(=O)c1cn2ncnc(Oc3ccc(NC(=O)Nc4ccc(Cl)c(C(F)(F)F)c4)cc3)c2c1C | 6
8) Cc1ccc(C(=O)N/N=C/c2cccc([N+](=O)[O-])c2)cn1 | 90

###

Tested on: CCRF-CEM leukemia
Assay: NCI-60 one-dose screen, 48 h
Conditions: 10 µM unless noted
About 83,000 compounds went through this panel and 20% of them were active in at least one assay; those are over-represented in the sample as a whole. Active and inactive are the calls of the source. Rule for the calls: active = growth percent below 10; inactive = the rest.
Outcome codes: TRUE (active), FALSE (inactive)

1) COc1ccc(/C=C2\Oc3cc(OCCN4CCC(Cc5ccccc5)CC4)ccc3C2=O)cc1OC | FALSE
2) Cc1nn(-c2ccccc2)c2c1N=c1s/c(=C\c3ccc(C(F)(F)F)cc3)c(=O)n1CN2 | FALSE
3) CCCCOc1ccc(/C=N/NC(N)=S)cc1 | FALSE
4) O=C(Nn1c(NCC(=O)N2c3ccccc3Sc3ccccc32)nnc1-c1ccc(O)cc1)c1ccccc1 | TRUE
5) COc1ccc(C(=S)N2CCN(c3cccc(C)c3)CC2)cc1OC | FALSE
6) [O-][n+]1c2ccccc2[n+]([O-])c2c3ccccc3[nH]c21 | FALSE
7) O=c1ccn(Cc2cn(-c3c4ccccc4nc4ccccc34)nn2)c(=O)[nH]1 | FALSE
8) O=C(N=c1oc2ccccc2cc1-c1cc2ccccc2[nH]1)Nc1ccc(Cl)cc1 | FALSE
9) COc1cc(C2CC(c3ccc(N(C)C)cc3)=NN2C(C)=O)cc(OC)c1OC (stereo unspecified) | FALSE
10) COC1=C(C)C(=O)c2c(c(CCCl)c3n2CCC3O)C1=O (stereo unspecified) | FALSE
11) CCCCn1c(-c2ccc(C(=O)O/N=C(\N)c3ccc(OC)cc3)cc2)nc(-c2ccccc2)c1-c1ccccc1 | TRUE
12) CCCCCCNC(=O)Oc1ccc(/C(=C(\C)c2ccc(Cl)cc2)c2ccc(OCCCN(C)C)cc2)cc1 | FALSE
13) CS(=O)(=O)Nc1cc(-c2ccc3ncnc(Nc4cccc(Cl)c4F)c3c2)cnc1Cl | FALSE
14) CCOC(=O)Cn1c(C)c(/C=N/NC(=O)c2cc3c(ccc4ccccc43)o2)c2ccccc21 | FALSE
15) Cc1ccc(-c2nc(SCC(=O)Nc3nc(-c4ccc(Cl)cc4)cs3)[nH]c(=O)c2C#N)cc1 | FALSE
16) COc1cc(/C=C/C(=O)/C=C/c2cc(OC)c3c(c2OC)OCO3)c(OC)c2c1OCO2 | FALSE
17) CCOC(=O)c1sc2ncc(-c3ccc(OC)cc3)n2c1C | FALSE
18) Cc1cc(=O)oc2cc(OC(=O)CN3CCN(C)CC3)ccc12 | FALSE
19) c1cc2nc(-c3cn[nH]c3)c3c(c2cc1-c1cn[nH]c1)C1CCC3C1 (stereo unspecified) | FALSE
20) CCOC(=O)CCN(C(=O)Nc1ccccc1)C1CCCCC1 | FALSE
21) NCCCNc1nc2ccc(Cl)cc2c2c(=O)c3cc(F)ccc3sc12 | FALSE
